Tested on: ctXPD R195A (Chaetomium thermophilum)
Assay: BLI
Conditions: 3'-biotin; BLI (Octet RED): 20 mM Tris-HCl pH 8.0, 150 mM NaCl, 10 mM MgCl2, 1 mM DTT, 1 mg/ml BSA; 0.5-5 uM ctXPD; temperature not stated
readout kind: pKd
# pKd = -log10(concentration in molar units)

Give its pKd value. Item: GACTACGTACTGTTACGGCTCCATCTCTACCGCAATCAGGCCAGATCTGC [50-nt ssDNA (BLI)]
5.99

----------
Test system: ctXPD Y156A (Chaetomium thermophilum)
Assay: BLI
Details: 3'-biotin; BLI (Octet RED): 20 mM Tris-HCl pH 8.0, 150 mM NaCl, 10 mM MgCl2, 1 mM DTT, 1 mg/ml BSA; 0.5-5 uM ctXPD; temperature not stated
readout kind: Kd (µM)
A number alone suffices; assume µM.

Request body: readout Kd, system ctXPD Y156A (Chaetomium thermophilum), query GACTACGTACTGTTACGGCTCCATCTCTACCGCAATCAGGCCAGATCTGC [50-nt ssDNA (BLI)] . Return the value.
0.561

----------
Tested on: ctXPD K48R (Chaetomium thermophilum)
Test: BLI
Conditions: 3'-biotin; BLI (Octet RED): 20 mM Tris-HCl pH 8.0, 150 mM NaCl, 10 mM MgCl2, 1 mM DTT, 1 mg/ml BSA; 0.5-5 uM ctXPD; temperature not stated
readout kind: Kd (nM)
A number alone suffices; assume nM.

Request body: readout Kd, system ctXPD K48R (Chaetomium thermophilum), query GACTACGTACTGTTACGGCTCCATCTCTACCGCAATCAGGCCAGATCTGC [50-nt ssDNA (BLI)] . Return the value.
159

----------
Tested on: ctXPD K719W (Chaetomium thermophilum)
Assay: BLI
Conditions: 3'-biotin; BLI (Octet RED): 20 mM Tris-HCl pH 8.0, 150 mM NaCl, 10 mM MgCl2, 1 mM DTT, 1 mg/ml BSA; 0.5-5 uM ctXPD; temperature not stated
readout kind: Kd (nM)
A number alone suffices; assume nM.

Request body: readout Kd, system ctXPD K719W (Chaetomium thermophilum), query GACTACGTACTGTTACGGCTCCATCTCTACCGCAATCAGGCCAGATCTGC [50-nt ssDNA (BLI)] . Return the value.
192
